Property: self-cleavage; scope: individual variants
B1: LINE1-full (parent)
chain: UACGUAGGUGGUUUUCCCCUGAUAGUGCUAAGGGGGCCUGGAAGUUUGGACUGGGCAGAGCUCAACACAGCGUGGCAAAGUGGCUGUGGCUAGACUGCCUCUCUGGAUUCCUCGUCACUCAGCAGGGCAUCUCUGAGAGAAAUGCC

- Variants of: B1
- Test protocol: self-cleavage, relative activity (ratio to wild type); higher = more cleavage; in vitro, sequencing; the parent is a self-cleaving ribozyme
# output: bare number, no unit

Worked cases, self-cleavage given:
Reported self-cleavage ( U29C G83A ) = 0.43

Reported self-cleavage ( U109A U130C ) = 1.54

Reported self-cleavage ( A67U G74A ) = 0.08

Reported self-cleavage ( U13C G49A ) = 0.88

Reported self-cleavage ( A92G U96A ) = 0.13

Reported self-cleavage ( U39C G122A ) = 1.25

Reported self-cleavage ( A22G C110U ) = 0.92

Reported self-cleavage ( A30U G82A ) = 1.57

New cases:
Reported self-cleavage ( A43U C110U ) = 0.83

Reported self-cleavage ( G4C U85C ) = 0.13

Reported self-cleavage ( G33A U39C ) = 1.16

Reported self-cleavage ( A57U U134A ) = 0.1

Reported self-cleavage ( U29C U134C ) = 1.37
